Each recorded value in this set is attributed to patent US20240350493A1.

ASSAY_EXPLANATION: phase I two-part drug-drug interaction study, plasma pharmacokinetics (Example 1)
Type: in vivo, human
MEASUREMENT_PARAMETERS: male, human, plasma, oral, 200 mg, 200 mg belumosudil BID alone, first dose; read-out: Cmax, arithmetic mean (SD)
EXPERIMENTAL_READOUT: Cmax

STRUCTURE_NOTATION: CC(C)NC(=O)COc1cccc(-c2nc(Nc3ccc4[nH]ncc4c3)c3ccccc3n2)c1
OBSERVED_RESULT: 1880 ng/mL

====

ASSAY_EXPLANATION: food effect study, 5 × 100 mg capsules (KD025-105)
Type: in vivo, human
MEASUREMENT_PARAMETERS: male, human, plasma, oral, 500 mg, 5 × 100 mg capsules, fasted; read-out: t1/2, geometric mean (geometric CV %) (converted)

STRUCTURE_NOTATION: CC(C)NC(=O)COc1cccc(-c2nc(Nc3ccc4[nH]ncc4c3)c3ccccc3n2)c1
VALUE_UNITS: h
half-life: 9

====

ASSAY_EXPLANATION: phase I two-part drug-drug interaction study, plasma pharmacokinetics (Example 1)
Type: in vivo, human
MEASUREMENT_PARAMETERS: male, human, plasma, oral, 200 mg belumosudil single dose + rifampicin; read-out: AUC0-24, arithmetic mean (SD)

COMPOUND: CC(C)NC(=O)COc1cccc(-c2nc(Nc3ccc4[nH]ncc4c3)c3ccccc3n2)c1 [Belumosudil]
AUC from 0 to 24 h: 2630 ng·h/mL

====

ASSAY_EXPLANATION: pH-dependent solubility
Format: physicochemical
MEASUREMENT_PARAMETERS: simulated gastric fluid; pH 2.0

STRUCTURE_NOTATION: CC(C)NC(=O)COc1cccc(-c2nc(Nc3ccc4[nH]ncc4c3)c3ccccc3n2)c1
solubility: 1430 µg/mL

====

ASSAY_EXPLANATION: food effect study, 5 × 100 mg capsules (KD025-105)
Assay type: in vivo, human
MEASUREMENT_PARAMETERS: male, human, plasma, oral, 500 mg, 5 × 100 mg capsules, fed; read-out: AUC0-24, arithmetic mean (SD)

STRUCTURE_NOTATION: CC(C)NC(=O)COc1cccc(-c2nc(Nc3ccc4[nH]ncc4c3)c3ccccc3n2)c1
AUC(0-t) [ng·h/mL]: 25100

====

ASSAY_EXPLANATION: phase I two-part drug-drug interaction study, plasma pharmacokinetics (Example 1)
Assay type: in vivo, human
MEASUREMENT_PARAMETERS: male, human, plasma, oral, 200 mg belumosudil BID + omeprazole; read-out: AUClast, arithmetic mean (SD)
Experimental: The secondary objective was to provide additional information on the safety and tolerability of this dose regimen in healthy males. This was a single center, non-randomized, DDI study in 35 (Part 1) and 38 (Part 2) healthy males. […] For each comparison, PK parameters were natural log transformed and analyzed using mixed effect modeling with treatment included as a fixed effect and subject as a random effect. Adjusted geometric mean ratios (GMRs) and corresponding 90% CIs were calculated.

COMPOUND: CC(C)NC(=O)COc1cccc(-c2nc(Nc3ccc4[nH]ncc4c3)c3ccccc3n2)c1 [Belumosudil]
AUC(0-t) (ng·h/mL): 10900

====

ASSAY_EXPLANATION: relative bioavailability/food effect study, tablet and capsule (KD025-106)
Format: in vivo, human
MEASUREMENT_PARAMETERS: male, human, plasma, oral, 200 mg, 200 mg tablet, fasted; read-out: Cmax, geometric mean (geometric CV %)
EXPERIMENTAL_READOUT: Cmax

STRUCTURE_NOTATION: CC(C)NC(=O)COc1cccc(-c2nc(Nc3ccc4[nH]ncc4c3)c3ccccc3n2)c1
OBSERVED_RESULT: 821 ng/mL

====

ASSAY_EXPLANATION: relative bioavailability/food effect study, tablet and capsule (KD025-106)
Format: in vivo, human
MEASUREMENT_PARAMETERS: male, human, plasma, oral, 200 mg, 200 mg tablet, fed; read-out: Cmax, arithmetic mean (SD)

STRUCTURE_NOTATION: CC(C)NC(=O)COc1cccc(-c2nc(Nc3ccc4[nH]ncc4c3)c3ccccc3n2)c1
VALUE_UNITS: ng/mL
Cmax: 2320

====

ASSAY_EXPLANATION: phase I two-part drug-drug interaction study, plasma pharmacokinetics (Example 1)
Format: in vivo, human
MEASUREMENT_PARAMETERS: male, human, plasma, oral, 200 mg belumosudil BID + omeprazole; read-out: AUCinf, arithmetic mean (SD)
Experimental: The secondary objective was to provide additional information on the safety and tolerability of this dose regimen in healthy males. This was a single center, non-randomized, DDI study in 35 (Part 1) and 38 (Part 2) healthy males. […] For each comparison, PK parameters were natural log transformed and analyzed using mixed effect modeling with treatment included as a fixed effect and subject as a random effect. Adjusted geometric mean ratios (GMRs) and corresponding 90% CIs were calculated.

STRUCTURE_NOTATION: CC(C)NC(=O)COc1cccc(-c2nc(Nc3ccc4[nH]ncc4c3)c3ccccc3n2)c1
AUC(0-inf) [ng·h/mL]: 11200

====

ASSAY_EXPLANATION: phase I two-part drug-drug interaction study, plasma pharmacokinetics (Example 1)
Type: in vivo, human
MEASUREMENT_PARAMETERS: male, human, plasma, oral, 200 mg belumosudil BID + omeprazole; read-out: AUClast, geometric mean (geometric CV %)

MOLECULE: CC(C)NC(=O)COc1cccc(-c2nc(Nc3ccc4[nH]ncc4c3)c3ccccc3n2)c1 [Belumosudil]
VALUE_UNITS: ng·h/mL
AUC(0-t): 9680

====

ASSAY_EXPLANATION: phase I two-part drug-drug interaction study, plasma pharmacokinetics (Example 1)
Assay type: in vivo, human
MEASUREMENT_PARAMETERS: male, human, plasma, oral, 200 mg belumosudil BID + omeprazole, first dose; read-out: Tmax, median (range)

STRUCTURE_NOTATION: CC(C)NC(=O)COc1cccc(-c2nc(Nc3ccc4[nH]ncc4c3)c3ccccc3n2)c1
VALUE_UNITS: h
Tmax: 4

====

ASSAY_EXPLANATION: phase I two-part drug-drug interaction study, plasma pharmacokinetics (Example 1)
Format: in vivo, human
MEASUREMENT_PARAMETERS: male, human, plasma, oral, 200 mg, 200 mg belumosudil single dose alone; read-out: Cmax, geometric mean (geometric CV %)

STRUCTURE_NOTATION: CC(C)NC(=O)COc1cccc(-c2nc(Nc3ccc4[nH]ncc4c3)c3ccccc3n2)c1
Cmax: 1770 ng/mL

====

ASSAY_EXPLANATION: phase I two-part drug-drug interaction study, plasma pharmacokinetics (Example 1)
Format: in vivo, human
MEASUREMENT_PARAMETERS: male, human, plasma, oral, 200 mg belumosudil BID + omeprazole; read-out: t1/2, arithmetic mean (SD) (converted)

COMPOUND: CC(C)NC(=O)COc1cccc(-c2nc(Nc3ccc4[nH]ncc4c3)c3ccccc3n2)c1 [Belumosudil]
half-life: 6.55 h

====

ASSAY_EXPLANATION: food effect study, 5 × 100 mg capsules (KD025-105)
Type: in vivo, human
MEASUREMENT_PARAMETERS: male, human, plasma, oral, 500 mg, 5 × 100 mg capsules, fasted; read-out: t1/2, arithmetic mean (SD) (converted)
EXPERIMENTAL_READOUT: half-life (h)

STRUCTURE_NOTATION: CC(C)NC(=O)COc1cccc(-c2nc(Nc3ccc4[nH]ncc4c3)c3ccccc3n2)c1
OBSERVED_RESULT: 9.5

====

ASSAY_EXPLANATION: phase I two-part drug-drug interaction study, plasma pharmacokinetics (Example 1)
Assay type: in vivo, human
MEASUREMENT_PARAMETERS: male, human, plasma, oral, 200 mg belumosudil single dose + rabeprazole; read-out: AUClast, geometric mean (geometric CV %)
EXPERIMENTAL_READOUT: AUC(0-t) (ng·h/mL)

STRUCTURE_NOTATION: CC(C)NC(=O)COc1cccc(-c2nc(Nc3ccc4[nH]ncc4c3)c3ccccc3n2)c1
EXPERIMENTAL_READOUT: AUC(0-t)
OBSERVED_RESULT: 1580

====

ASSAY_EXPLANATION: phase I two-part drug-drug interaction study, plasma pharmacokinetics (Example 1)
Type: in vivo, human
MEASUREMENT_PARAMETERS: male, human, plasma, oral, 200 mg belumosudil single dose + itraconazole; read-out: AUC0-24, arithmetic mean (SD)
EXPERIMENTAL_READOUT: AUC from 0 to 24 h (ng·h/mL)

STRUCTURE_NOTATION: CC(C)NC(=O)COc1cccc(-c2nc(Nc3ccc4[nH]ncc4c3)c3ccccc3n2)c1
EXPERIMENTAL_READOUT: AUC from 0 to 24 h
OBSERVED_RESULT: 11000

====

ASSAY_EXPLANATION: relative bioavailability/food effect study, tablet and capsule (KD025-106)
Assay type: in vivo, human
MEASUREMENT_PARAMETERS: male, human, plasma, oral, 200 mg, 200 mg tablet, fasted; read-out: t1/2, geometric mean (geometric CV %) (converted)

STRUCTURE_NOTATION: CC(C)NC(=O)COc1cccc(-c2nc(Nc3ccc4[nH]ncc4c3)c3ccccc3n2)c1
VALUE_UNITS: h
half-life: 11.2
